ASSAY_REMARKS: Worst-case calculation, Application 1 yoghurt pot lid exposure scenario
CONDITION_SET: product SBDEV1285; 100% migration; 2.0 g/m^2 dry film
Counter-ions that a name gives are not always drawn.
ASSAY_ENDPOINT: Worst-case calculation as a percentage of SML (or restriction), Application 1

# COMPOUND, RECORDED_MEASUREMENT
measured = [
    ("c1ccc(-c2ccc(-c3nc(-c4ccc(-c5ccccc5)cc4)nc(-c4ccc(-c5ccccc5)cc4)n3)cc2)cc1", "0.1 percentage of SML (or restriction)"),
    ("CCCCOC(=O)CC(O)(CC(=O)OCCCC)C(=O)OCCCC [0000077-94-1, Tributyl citrate]", "20.73 percentage of SML (or restriction)"),
    ("O=Cc1ccc(Cl)cc1", "5.5 percentage of SML (or restriction)"),
    ("CCCC1OC(CCC)OC(CCC)O1 (stereo not shown)", "26.4 percentage of SML (or restriction)"),
]

* * *

Worst-case calculation as a percentage of SML (or restriction), Application 1: recorded values
ASSAY_REMARKS: Worst-case calculation, Application 1 yoghurt pot lid exposure scenario
CONDITION_SET: product SBDEV1285; 100% migration; 2.0 g/m^2 dry film
ASSAY_ENDPOINT: Worst-case calculation as a percentage of SML (or restriction), Application 1

# COMPOUND, RECORDED_MEASUREMENT
rows = [
    ("N#Cc1ccc(-c2ccccc2)cc1", "2.0 percentage of SML (or restriction)"),
    ("O=C(O)c1ccc(-c2ccccc2)cc1", "2.8 percentage of SML (or restriction)"),
    ("NC(=O)c1ccc(-c2ccccc2)cc1 [0003815-20-1, 4-Phenylbenzamide]", "90.5 percentage of SML (or restriction)"),
    ("O=C1NCCN1", "4.7 percentage of SML (or restriction)"),
    ("CCCCCCCC/C=C\\CCCCCCCC(=O)OCC [0000111-62-6, Ethyl Oleate]", "8.91 percentage of SML (or restriction)"),
]

* * *

ASSAY_REMARKS: Worst-case calculation, Application 1 yoghurt pot lid exposure scenario
CONDITION_SET: product SBDEV980; 100% migration; 2.0 g/m^2 dry film
Where a name gives a salt, the structure may show the parent alone.
ASSAY_ENDPOINT: Worst-case calculation as a percentage of SML (or restriction), Application 1

# COMPOUND, RECORDED_MEASUREMENT
measured = [
    ("N#Cc1ccc(-c2ccccc2)cc1", "2.0 percentage of SML (or restriction)"),
    ("O=Cc1ccc(Cl)cc1", "5.5 percentage of SML (or restriction)"),
    ("CCCCOC(=O)CC(O)(CC(=O)OCCCC)C(=O)OCCCC [0000077-94-1, Tributyl citrate]", "21.0 percentage of SML (or restriction)"),
    ("NC(=O)c1ccc(-c2ccccc2)cc1 [0003815-20-1, 4-Phenylbenzamide]", "90.5 percentage of SML (or restriction)"),
]

* * *

ASSAY_REMARKS: Worst-case calculation, Application 1 yoghurt pot lid exposure scenario
CONDITION_SET: product SBDEV977; 100% migration; 2.0 g/m^2 dry film
ASSAY_ENDPOINT: Worst-case calculation as a percentage of SML (or restriction), Application 1

# COMPOUND, RECORDED_MEASUREMENT
records = [
    ("CCCCCCCC/C=C\\CCCCCCCC(=O)OCC [0000111-62-6, Ethyl Oleate]", "9.42 percentage of SML (or restriction)"),
    ("CCCCCCCC/C=C\\CCCCCCCC(=O)N(CCO)CCO [0000093-83-4, N,N-Bis(2-hydroxyethyl) oleamide]", "27.1 percentage of SML (or restriction)"),
    ("O=C1NC(=O)c2ccccc21 [0000085-41-6, Phthalimide]", "377.6 percentage of SML (or restriction)"),
]
